The reported measurements were obtained from paper PMC3817407.

- experimental_target: T1, ECF11_987
- T1 chain: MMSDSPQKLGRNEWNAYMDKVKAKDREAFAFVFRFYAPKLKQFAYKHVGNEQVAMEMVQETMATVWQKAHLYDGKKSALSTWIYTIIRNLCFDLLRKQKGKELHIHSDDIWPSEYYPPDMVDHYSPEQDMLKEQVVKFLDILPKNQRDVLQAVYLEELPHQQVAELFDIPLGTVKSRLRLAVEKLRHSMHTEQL
Each entry below lists one item and its recorded fold repression value.
endpoint: fold repression

>>> measurement("AS27_4265 (protein) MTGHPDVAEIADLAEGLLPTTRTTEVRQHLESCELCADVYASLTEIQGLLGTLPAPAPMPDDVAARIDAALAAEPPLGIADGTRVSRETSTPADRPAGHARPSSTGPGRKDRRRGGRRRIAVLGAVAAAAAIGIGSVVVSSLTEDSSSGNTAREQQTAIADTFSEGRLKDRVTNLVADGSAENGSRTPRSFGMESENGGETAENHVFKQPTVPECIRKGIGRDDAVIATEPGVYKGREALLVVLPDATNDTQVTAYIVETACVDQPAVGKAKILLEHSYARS")
5.93
>>> measurement("AS03_1198 (protein) MDKDFDFDNIGKRTPYRTPDNFFEETQRKILERTVDEQRKKRRLKRIIPTVIAVAAVLAGILFTPSLRYMNTDTPSASNILAVDKNNVTTDPVDKWIKELSDEELEELVSFSENDIFLN")
1.61
>>> measurement("AS15_524 (protein) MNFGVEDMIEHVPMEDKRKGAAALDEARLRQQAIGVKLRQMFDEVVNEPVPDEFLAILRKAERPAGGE")
3.74
